molecular target: T1, human BCMA-hFc kih monovalent recombinant protein (human, UniProt P0DOX5 223-449 = IgG part); experiment: SPR (Biacore T200), BCMA-hFc captured on Protein A chip, Fab as analyte, 1:1 Langmuir
T1 construct: Knob-into-hole heterodimer with one BCMA arm, expressed in HEK293E; also called human BCMA-hFc recombinant protein
Assignment: determine reported pKd for the given binders.
Numbers only, as −log10 of the molar value.

Worked examples, 2 binders total:
23F8 Fab (Fab, V domains shown, Murine BCMA Fab, Ni-NTA purified) VH: EIQLVQSGPELKKPGETVKISCTASGYTFTNFGMNWVRQAPGKALRWMGWINTYTGDQIYADDFKGRFAFSLETSASTAYLQINNLKNEDTATYFCARGEIYYGYDVGFVYWGQGTLVTVSA VL: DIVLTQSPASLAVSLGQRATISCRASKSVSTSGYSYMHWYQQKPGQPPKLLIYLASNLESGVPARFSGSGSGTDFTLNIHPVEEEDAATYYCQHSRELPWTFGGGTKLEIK | 8.25
16B9 Fab (Fab, V domains shown, Murine BCMA Fab, Ni-NTA purified) VH: EIQLVQSGPELKKPGETVKISCKASGYIFTNFGMNWVRQTPGKALKWMGWINTYTGETIYADDFKGLFAFSLEVPASTAYLQINNLKNEDTATYFCARGEIYYGFDVGFAYWGQGTLVTVSA VL: DIVLTQSPASLTVSLGQRATISCRASKSVSTSGYSYIHWYQQKPGQPPKLLIYLASDLESGVPARFSGSGSGTDFTLNIHPVEEEDAATYYCQHSRELPWTFGGGTKLELK | 8.39

Task: What does the data say about its pKd? Entry: 38F9 Fab (Fab, V domains shown, Murine BCMA Fab, Ni-NTA purified) VH: EIQLVQSGPELKKPGETVKISCKASGYIFTNFGMNWVRQAPGKALKWMGWINTYTGEQIYADDFKGRFAFSLETSASTAYLQINNLKNEDTATYFCARGEIYYGYDVGFVYWGQGTLVTVSA VL: NIVLTQSPASLAVSLGQRATISCRASESVDSSGNSFMHWYQQKPGQPPKLLIYLESNLESGVPARFSGSGSRTDFTLTIEPVEADDAATYYCQQSNEDPWTFGGGTKLEIK
Output: 6.46

Hello, the source for this data is patent US20250277045A1, in case you need it.
